Values from ChEMBL document CHEMBL1944509

Experiment description: Plasma concentration in ICR mouse at 10 mg/kg, po after 0.083 hrs by HPLC/MS/MS analysis
Assay type: ADME, organism-based
Parameters: dose 10 mg/kg, route oral
Measure: concentration at 0.083 h (ng/mL)

Compound | Measure | Measured result
CC(C)Cc1ccc([C@H](CF)C(=O)O)cc1 | concentration at 0.083 h | 41800
CC(C)Cc1ccc([C@H](C)C(=O)O)cc1 [DEXIBUPROFEN] | concentration at 0.083 h | 52100

###

Experiment description: Drug level in ICR mouse brain at 10 mg/kg, po after 0.5 hrs by HPLC/MS/MS analysis
Assay type: ADME, organism-based
Design: dose 10 mg/kg, route oral
Assay setup: read-out: Drug uptake
Listed next: entries and their corresponding concentration at 0.5 h.
Measure: concentration at 0.5 h (ng/g)

Compound | Measure | Reading unit | Measured result
CC(C)Cc1ccc([C@H](CF)C(=O)O)cc1 | concentration at 0.5 h | ng/g | 950
CC(C)Cc1ccc([C@H](C)C(=O)O)cc1 [DEXIBUPROFEN] | concentration at 0.5 h | ng/g | 1130
